tested on: ducksalad (Heteranthera limosa); assay: Test B flooded paddy test; assay type: in vivo; conditions: Flood, 250 g ai/ha; 0 to 100 scale where 0 is no effect and 100 is complete control; 13 to 15 d
Plant response rating, Ducksalad values, listed per item

Reported Plant response rating, Ducksalad of N#Cc1cccc(C2CNC(=O)C2C(=O)Nc2cccc(F)c2F)c1 (centres unmarked) : 100

Reported Plant response rating, Ducksalad of CN1CC(c2ccc3c(c2)OC(F)(F)O3)C(C(=O)Nc2cccc(F)c2F)C1=O (centres unmarked) : 100

Reported Plant response rating, Ducksalad of O=C1NCC(c2cccc(Br)c2)C1C(=O)Nc1ccc(F)c(F)c1F (racemic) : 98

New cases:
Reported Plant response rating, Ducksalad of Cc1ccc(C2CNC(=O)C2C(=O)Nc2ccc(F)cc2F)cc1C(F)(F)F (racemic) : 30

Reported Plant response rating, Ducksalad of Cc1ccc(C2CN(C)C(=O)C2C(=O)Nc2ccc(F)cc2F)cc1 (centres unmarked) : 100

Reported Plant response rating, Ducksalad of Cc1cccc(C2CN(C)C(=O)C2C(=O)Nc2ccccc2F)c1 (centres unmarked) : 85

Reported Plant response rating, Ducksalad of CN1CC(c2ccc(F)cc2)C(C(=O)Nc2ccc(F)cc2F)C1=O (centres unmarked) : 95

Reported Plant response rating, Ducksalad of CN1CC(c2ccc(C(C)(F)F)cc2)C(C(=O)Nc2ccccc2S(C)(=O)=O)C1=O (centres unmarked) : 20

###

Plant response rating, Foxtail, Giant values, listed per item
test system: giant foxtail (Setaria faberii); assay: Test A postemergence; type: in vivo; details: 500 g ai/ha, postemergence; 0 to 100 scale, 0 no effect, 100 complete control
Reply: number alone, nothing else.

Example entries and their recorded answers appear below.
Form field Plant response rating, Foxtail, Giant for item O=C1NCC(c2ccc(Br)cc2)C1C(=O)Nc1ccccc1F (stereo not drawn) [Compound 448] on giant foxtail (Setaria faberii): 80

Form field Plant response rating, Foxtail, Giant for item CC(=O)c1ccccc1NC(=O)C1C(=O)NCC1c1ccc(F)c(F)c1 (stereo not drawn) [Compound 418] on giant foxtail (Setaria faberii): 0

Form field Plant response rating, Foxtail, Giant for item O=C1NCC(c2ccc(Br)cc2)C1C(=O)Nc1cccc(F)c1F (stereo not drawn) [Compound 446] on giant foxtail (Setaria faberii): 90

New cases:
Form field Plant response rating, Foxtail, Giant for item Cc1c(F)ccc(NC(=O)C2C(=O)NCC2c2cc(F)cc(F)c2)c1F (stereo not drawn) [Compound 461] on giant foxtail (Setaria faberii): 80

Form field Plant response rating, Foxtail, Giant for item Cc1ccc(C2CNC(=O)C2C(=O)Nc2ccc(F)cc2F)cc1F (racemic) [Compound 370] on giant foxtail (Setaria faberii): 70

Form field Plant response rating, Foxtail, Giant for item CN1CC(c2ccc(F)cc2)C(C(=O)Nc2cccc(F)c2F)C1=O (stereo not drawn) [Compound 438] on giant foxtail (Setaria faberii): 90

###

Test system: redroot pigweed (Amaranthus retroflexus)
Experiment: Test G Post-Emergence Protocol
Format: in vivo
Conditions: Amaranthus retroflexus, post-emergence, 312 h, 62.5 g ai/ha, evaluated after 13 days, 100=total damage to plant, 0=no damage to plant, read-out: Pigweed, Redroot damage rating
Source text: Seeds of corn (Zea mays), giant foxtail (Setaria faberi), barnyardgrass (Echinochloa crus-galli), ivy-leaved morning glory (Ipomoea hederacea), redroot pigweed (Amaranthus retroflexus) and velvetleaf (Abutilon theophrasti) were sown in standard soil in pots. […]
MEASURED_METRIC: pest or weed control at 62.5 g/ha (%)
# number only, unit % dropped from output

Example entries and their recorded answers appear below.
Reported pest or weed control at 62.5 g/ha of CCCOc1cc(C2CN(C)C(=O)C2C(=O)Nc2cccc(F)c2F)cc(C(F)(F)F)c1 (stereo not shown) : 10

Reported pest or weed control at 62.5 g/ha of CN1C[C@@H](c2cc(Br)cc(Oc3ccccc3)c2)[C@H](C(=O)Nc2cccc(F)c2F)C1=O (racemic) : 30

New cases:
Reported pest or weed control at 62.5 g/ha of Cc1ccc(C2CN(C)C(=O)C2C(=O)Nc2cccc(F)c2F)cc1[N+](=O)[O-] (stereo not shown) : 10

Reported pest or weed control at 62.5 g/ha of COc1ccc([C@@H]2CN(C)C(=O)[C@H]2C(=O)Nc2cccc(F)c2C)cc1Cl (racemic) : 0

Reported pest or weed control at 62.5 g/ha of CN1C[C@@H](c2ccc(CO)cc2)[C@H](C(=O)Nc2cccc(F)c2F)C1=O (racemic) : 0

Reported pest or weed control at 62.5 g/ha of COc1cc(C)cc([C@@H]2CN(C)C(=O)[C@H]2C(=O)Nc2cccc(F)c2C)c1 (racemic) : 0

Reported pest or weed control at 62.5 g/ha of Cc1cc(F)ncc1NC(=O)[C@H]1C(=O)N(C)C[C@@H]1c1ccc(C(F)(F)F)cc1 (racemic) : 20

###

system: pigweed (Amaranthus retroflexus); experiment: Test A preemergence; assay type: in vivo; settings: Amaranthus retroflexus, pre-emergence, 240 h, 125 g ai/ha, preemergence; 0 to 100 scale where 0 is no effect and 100 is complete control; read-out: Pigweed plant response rating
Excerpt: […]
pest or weed control at 125 g/ha values, listed per item
# number only, unit % dropped from output

Example entries and their recorded answers appear below.
Reported pest or weed control at 125 g/ha of CN1CC[C@H](c2cccc(Cl)c2)[C@@H](C(=O)Nc2ccccc2S(C)(=O)=O)C1=O : 0

Reported pest or weed control at 125 g/ha of CN1C[C@H](c2ccc(C(F)(F)F)cc2)[C@@H](C(=O)Nc2cccc(F)c2Cl)C1=O : 80

Reported pest or weed control at 125 g/ha of CN1C[C@H](c2cccc(OC(F)(F)C(F)F)c2)[C@@H](C(=O)Nc2ccccc2S(C)(=O)=O)C1=O : 90

Reported pest or weed control at 125 g/ha of COc1c(F)ccc([C@H]2CNC(=O)[C@@H]2C(=O)Nc2ccc(F)cc2F)c1Cl : 0

Reported pest or weed control at 125 g/ha of CN1C[C@H](c2cc(F)c(F)c(F)c2)[C@@H](C(=O)Nc2ccccc2S(C)(=O)=O)C1=O : 70

Reported pest or weed control at 125 g/ha of CCc1cc([C@H]2CNC(=O)[C@@H]2C(=O)Nc2ccccc2F)cs1 : 0

New cases:
Reported pest or weed control at 125 g/ha of COc1c(F)ccc([C@H]2CN(C)C(=O)[C@@H]2C(=O)Nc2ccc(F)c(F)c2F)c1Cl : 50

###

test system: giant foxtail (Setaria faberii); test: Test A postemergence; type: in vivo; conditions: 125 g ai/ha, postemergence; visual rating after approx. 10 d, 0 to 100 scale (0 no effect, 100 complete control)
Simple rule here: Plant response rating, Foxtail, Giant less than 80 is rule met, otherwise rule not met.

Worked examples, 5 compounds total:
Request: Given the entry CCc1cccc(C2CN(C)C(=O)C2C(=O)Nc2cccc(F)c2F)c1 (stereo not drawn) , would its reported Plant response rating, Foxtail, Giant be below 80?
Result: rule not met

Request: Given the entry CN1CC(c2cc(F)cc(F)c2)C(C(=O)Nc2cccc3c2CCC3)C1=O (stereo not drawn) , would its reported Plant response rating, Foxtail, Giant be below 80?
Result: rule not met

Request: Given the entry CN1CC(c2ccc(Br)cc2)C(C(=O)Nc2cccc(F)c2F)C1=O (stereo not drawn) , would its reported Plant response rating, Foxtail, Giant be below 80?
Result: rule not met

Request: Given the entry Cc1ccc(C2CNC(=O)C2C(=O)Nc2ccccc2F)cc1C(F)(F)F (racemic) , would its reported Plant response rating, Foxtail, Giant be below 80?
Result: rule met

Request: Given the entry CN1CC(c2cc(F)cc(F)c2)C(C(=O)Nc2ccc(F)cc2F)C1=O (stereo not drawn) , would its reported Plant response rating, Foxtail, Giant be below 80?
Result: rule not met

New cases:
Request: Given the entry CN1CC(c2ccc(F)c(C(F)(F)F)c2)C(C(=O)Nc2ccccc2S(C)(=O)=O)C1=O (stereo not drawn) , would its reported Plant response rating, Foxtail, Giant be below 80?
Result: rule met

Request: Given the entry Cc1ccc(C2CNC(=O)C2C(=O)Nc2ccc(F)cc2F)cc1C(F)(F)F (racemic) , would its reported Plant response rating, Foxtail, Giant be below 80?
Result: rule met

Request: Given the entry CN1CC(c2cccc(C(F)(F)F)c2)C(C(=O)Nc2cccc(C#N)c2F)C1=O (stereo not drawn) , would its reported Plant response rating, Foxtail, Giant be below 80?
Result: rule not met

Request: Given the entry CN1CC(c2cccc(OC(F)F)c2)C(C)(C(=O)Nc2cccc(F)c2F)C1=O (stereo not drawn) , would its reported Plant response rating, Foxtail, Giant be below 80?
Result: rule met

Request: Given the entry O=C1NCC(c2ccsc2Br)C1C(=O)Nc1cccc(F)c1F (stereo not drawn) , would its reported Plant response rating, Foxtail, Giant be below 80?
Result: rule met

Request: Given the entry O=C1NCC(c2csc(Br)c2)C1C(=O)Nc1ccccc1F (stereo not drawn) , would its reported Plant response rating, Foxtail, Giant be below 80?
Result: rule met

Request: Given the entry O=C1NCC(c2cc(Cl)sc2Cl)C1C(=O)Nc1cccc(F)c1F (stereo not drawn) , would its reported Plant response rating, Foxtail, Giant be below 80?
Result: rule met

Request: Given the entry CCc1cccc(C2CN(C)C(=O)C2C(=O)Nc2ccccc2S(C)(=O)=O)c1 (stereo not drawn) , would its reported Plant response rating, Foxtail, Giant be below 80?
Result: rule not met
